Test system: A673/TR/shEF
method.description: cell viability (LOESS-normalised, relative to median of negative controls) (log2 ratio); higher = more viable cells (less compound effect), active = hit call of the paper (over 3 MAD below the median)
experimental.context: 2.5 µM; library screen: screen2; EWS-FLI1 expression: high (no doxycycline); treatment time: 72 h
Among all 3,200 compounds or so, about 300 (9.4%) showed activity. The sample as a whole holds a higher share of actives than the screen did.
Kindly supply the reported cell viability (log2) values for the records listed here.

Inquiry: Name the recorded cell viability (log2) of the compound listed here: NCCCCNS(=O)(=O)c1cccc2c(Cl)cccc12
Reply text: 0.0418 (inactive)

Inquiry: Name the recorded cell viability (log2) of the compound listed here: CN(C)c1cc2c(Nc3ccc4c(cnn4Cc4ccccc4)c3)ncnc2cn1
Reply text: 0.147 (inactive)

Inquiry: Name the recorded cell viability (log2) of the compound listed here: CS(=O)(=O)Nc1ccc([N+](=O)[O-])cc1Oc1ccccc1
Reply text: 0.101 (inactive)

Inquiry: Name the recorded cell viability (log2) of the compound listed here: COc1ccccc1N1CCN(CCCCNS(=O)(=O)c2cccc3c(N(C)C)cccc23)CC1
Reply text: 0.0423 (inactive)

Inquiry: Name the recorded cell viability (log2) of the compound listed here: C[C@H]1c2cccc(O)c2C(O)=C2C(=O)[C@]3(O)C(O)=C(C(N)=O)C(=O)[C@@H](N(C)C)[C@@H]3[C@@H](O)[C@@H]21
Reply text: -0.00226 (inactive)

Inquiry: Name the recorded cell viability (log2) of the compound listed here: O=C(O)c1cc([N+](=O)[O-])ccc1NCCCc1ccccc1
Reply text: 0.0503 (inactive)

Inquiry: Name the recorded cell viability (log2) of the compound listed here: CC(N)=NCCC[C@H](N)C(=O)O
Reply text: -0.0275 (inactive)

Inquiry: Name the recorded cell viability (log2) of the compound listed here: NCCCCCC(=O)O
Reply text: 0.0922 (inactive)

Inquiry: Name the recorded cell viability (log2) of the compound listed here: OC[C@H]1N[C@H](CO)[C@@H](O)[C@@H]1O
Reply text: 0.108 (inactive)

Inquiry: Name the recorded cell viability (log2) of the compound listed here: COc1cc2ncnc(Nc3ccc(O)cc3)c2cc1OC
Reply text: 0.112 (inactive)

Inquiry: Name the recorded cell viability (log2) of the compound listed here: CN(C)c1ccc(O)c2c1C[C@H]1C[C@H]3[C@H](N(C)C)C(=O)C(C(N)=O)=C(O)[C@@]3(O)C(=O)C1=C2O
Reply text: 0.00725 (inactive)

Inquiry: Name the recorded cell viability (log2) of the compound listed here: O=C(O)CCCCCCCC(=O)O
Reply text: 0.0755 (inactive)

Inquiry: Name the recorded cell viability (log2) of the compound listed here: NC1(C(=O)O)CC1
Reply text: 0.123 (inactive)

Inquiry: Name the recorded cell viability (log2) of the compound listed here: COc1cc2ncnc(Nc3cccc(Cl)c3)c2cc1OC
Reply text: 0.175 (inactive)

Inquiry: Name the recorded cell viability (log2) of the compound listed here: CCCCCCCC/C=C\CCCCCCCC(=O)O
Reply text: 0.0994 (inactive)

Inquiry: Name the recorded cell viability (log2) of the compound listed here: CCCCCCCCCCCCCCC[C@@H](O)[C@H](CO)NC(C)=O
Reply text: 0.0603 (inactive)

Inquiry: Name the recorded cell viability (log2) of the compound listed here: NCCCCCCNS(=O)(=O)c1cccc2c(Cl)cccc12
Reply text: 0.141 (inactive)

Inquiry: Name the recorded cell viability (log2) of the compound listed here: Nc1ccc2c3c(cccc13)C(=O)NC2=O
Reply text: 0.0677 (inactive)

Inquiry: Name the recorded cell viability (log2) of the compound listed here: O=C1c2c(O)ccc(O)c2C(=O)c2c(NCCNCCO)ccc(NCCNCCO)c21
Reply text: -2.87 (active)

Inquiry: Name the recorded cell viability (log2) of the compound listed here: Nc1nc(=S)c2[nH]cnc2[nH]1
Reply text: -0.33 (active)

Inquiry: Name the recorded cell viability (log2) of the compound listed here: C[C@H](NC(=O)/C(C#N)=C/c1ccc(O)c(O)c1)c1ccccc1
Reply text: 0.118 (inactive)

Inquiry: Name the recorded cell viability (log2) of the compound listed here: NC1(C(=O)O)CCCCC1
Reply text: -0.0212 (inactive)

Inquiry: Name the recorded cell viability (log2) of the compound listed here: S=c1nc[nH]c2nc[nH]c12
Reply text: -0.00564 (inactive)

Inquiry: Name the recorded cell viability (log2) of the compound listed here: CC1(NCC(O)COc2cccc3[nH]ccc23)CCC(C(C)(C)NC(=O)CBr)CC1 (centres undefined)
Reply text: 0.106 (inactive)

---

Test system: A673/TR/shEF
method.description: cell viability (LOESS-normalised, relative to median of negative controls) (log2 ratio); higher = more viable cells (less compound effect), active = hit call of the paper (over 3 MAD below the median)
experimental.context: 2.5 µM; library screen: screen1; EWS-FLI1 expression: low (doxycycline-induced shRNA knockdown); treatment time: 72 h
In all, about 3,200 compounds went through this assay and about 300 (9.4%) showed activity. What follows is part of a selection rich in actives, with near analogues and random picks from the rest.
quantity: cell viability (log2)
Reply briefly: the number, and no unit.

Inquiry: Provide cell viability (log2), tested on A673/TR/shEF, for COc1ccc(-c2nn(-c3ccccc3)cc2C=O)cc1[N+](=O)[O-] .
Reply text: 0.0816

Inquiry: Provide cell viability (log2), tested on A673/TR/shEF, for C=CCN1C(=O)C(=C2C(=O)N(C)c3ccccc32)SC1=S .
Reply text: 0.0634

Inquiry: Provide cell viability (log2), tested on A673/TR/shEF, for COc1cccc(N2C(=O)C(=Cc3cccc(O)c3)SC2=S)c1 .
Reply text: 0.182

Inquiry: Provide cell viability (log2), tested on A673/TR/shEF, for C[C@H](CCC(=O)O)[C@H]1CC[C@H]2[C@@H]3C(O)CC4=CC(=O)CC[C@]4(C)[C@H]3CC[C@]12C (stereo partly drawn) .
Reply text: -0.0526

Inquiry: Provide cell viability (log2), tested on A673/TR/shEF, for COc1c(C)c2c(c(O)c1C/C=C(\C)CCC(=O)O)C(=O)OC2 .
Reply text: 0.00349

Inquiry: Provide cell viability (log2), tested on A673/TR/shEF, for CC(C)CCC[C@@H](C)[C@H]1CC[C@H]2[C@@H]3CC[C@H]4C[C@H](O)CC[C@]4(C)[C@H]3CC[C@]12C .
Reply text: 0.0759

Inquiry: Provide cell viability (log2), tested on A673/TR/shEF, for COc1ccc(-c2cc(=O)c3c(O)c(OC)c(OC4OC(COC5OC(C)C(O)C(O)C5O)C(O)C(O)C4O)cc3o2)cc1 (stereo not drawn) .
Reply text: 0.116

Inquiry: Provide cell viability (log2), tested on A673/TR/shEF, for COc1ccc(-c2cc(=O)c3c(O)cc(O[C@@H]4O[C@H](CO[C@@H]5O[C@@H](C)[C@H](O)[C@@H](O)[C@H]5O)[C@@H](O)[C@H](O)[C@H]4O)cc3o2)cc1O .
Reply text: 0.0709

---

Test system: A673/TR/shEF
method.description: cell viability (LOESS-normalised, relative to median of negative controls) (log2 ratio); higher = more viable cells (less compound effect), active = hit call of the paper (over 3 MAD below the median)
experimental.context: 0.103 µM; library screen: screen3; EWS-FLI1 expression: low (doxycycline-induced shRNA knockdown); treatment time: 72 h
The whole screen tested about 3,200 compounds, of which about 300 (9.4%) showed activity. This excerpt belongs to a sample that is enriched for actives.
Note to self: cell viability (log2) under 0.04 means Condition met, ties and anything higher get Condition not met.

Inquiry: Answer whether the compound C[N+]1(C)C2CC(OC(=O)C(O)(c3cccs3)c3cccs3)CC1C1OC12 (stereo not drawn) has cell viability (log2) strictly less than 0.04
Reply text: Condition not met

Inquiry: Answer whether the compound CCc1c2c(nc3ccc(OC(=O)N4CCC(N5CCCCC5)CC4)cc13)-c1cc3c(c(=O)n1C2)COC(=O)[C@]3(O)CC has cell viability (log2) strictly less than 0.04
Reply text: Condition not met

Inquiry: Answer whether the compound CNC[C@H](O)c1ccc(O)c(O)c1 has cell viability (log2) strictly less than 0.04
Reply text: Condition not met

Inquiry: Answer whether the compound COc1cc(Nc2c(C#N)cnc3cc(OCCCN4CCN(C)CC4)c(OC)cc23)c(Cl)cc1Cl has cell viability (log2) strictly less than 0.04
Reply text: Condition not met

Inquiry: Answer whether the compound C[C@@H](O)[C@H]1C(=O)N2C(C(=O)[O-])=C(SC3Cn4cnc[n+]4C3)[C@H](C)[C@H]12 (stereo partly drawn) has cell viability (log2) strictly less than 0.04
Reply text: Condition met

Inquiry: Answer whether the compound CC(=O)O[C@@]12CO[C@@H]1C[C@H](O)[C@@]1(C)C(=O)[C@H](O)C3=C(C)[C@@H](OC(=O)[C@H](O)[C@@H](NC(=O)OC(C)(C)C)c4ccccc4)C[C@@](O)([C@@H](OC(=O)c4ccccc4)[C@H]21)C3(C)C has cell viability (log2) strictly less than 0.04
Reply text: Condition met

Inquiry: Answer whether the compound CCC1=C[C@@H]2CN(C1)Cc1c([nH]c3ccccc13)[C@@](C(=O)OC)(c1cc3c(cc1OC)N(C)[C@H]1[C@@](O)(C(=O)OC)[C@H](OC(C)=O)[C@]4(CC)C=CCN5CC[C@]31[C@@H]54)C2 has cell viability (log2) strictly less than 0.04
Reply text: Condition met

Inquiry: Answer whether the compound CNC(=O)c1ccccc1Sc1ccc2c(/C=C/c3ccccn3)n[nH]c2c1 has cell viability (log2) strictly less than 0.04
Reply text: Condition met

Inquiry: Answer whether the compound Cc1ccc(C(=O)Nc2ccc(CN3CCN(C)CC3)c(C(F)(F)F)c2)cc1C#Cc1cnc2cccnn12 has cell viability (log2) strictly less than 0.04
Reply text: Condition not met

Inquiry: Answer whether the compound CC[C@@]1(O)C(=O)OCc2c1cc1n(c2=O)Cc2cc3c(CN(C)C)c(O)ccc3nc2-1 has cell viability (log2) strictly less than 0.04
Reply text: Condition met

Inquiry: Answer whether the compound COc1cc2ncnc(Nc3ccc(F)c(Cl)c3)c2cc1OCCCN1CCOCC1 has cell viability (log2) strictly less than 0.04
Reply text: Condition not met

Inquiry: Answer whether the compound CCC(C)[C@H]1O[C@]2(CC[C@@H]1C)CC1C[C@@H](C/C=C(\C)[C@@H](O[C@H]3C[C@H](OC)[C@@H](OC4C[C@H](OC)[C@@H](O)[C@H](C)O4)[C@H](C)O3)[C@@H](C)/C=C/C=C3\CO[C@@H]4[C@H](O)C(C)=C[C@@H](C(=O)O1)[C@]34O)O2.CO[C@H]1CC(O[C@H]2[C@H](C)O[C@@H](O[C@@H]3/C(C)=C/C[C@@H]4CC(C[C@]5(CC[C@H](C)[C@@H](C(C)C)O5)O4)OC(=O)[C@@H]4C=C(C)[C@@H](O)[C@H]5OC/C(=C\C=C\[C@@H]3C)[C@]54O)C[C@@H]2OC)O[C@@H](C)[C@@H]1O (stereo partly drawn) has cell viability (log2) strictly less than 0.04
Reply text: Condition not met

Inquiry: Answer whether the compound CS(=O)(=O)CCNCc1ccc(-c2ccc3ncnc(Nc4ccc(OCc5cccc(F)c5)c(Cl)c4)c3c2)o1 has cell viability (log2) strictly less than 0.04
Reply text: Condition not met

Inquiry: Answer whether the compound C[C@H]1COC2=C1C(=O)C(=O)c1c2ccc2c1CCCC2(C)C has cell viability (log2) strictly less than 0.04
Reply text: Condition not met

Inquiry: Answer whether the compound Nc1nc(=S)c2[nH]cnc2[nH]1 has cell viability (log2) strictly less than 0.04
Reply text: Condition not met

Inquiry: Answer whether the compound Cn1c(=O)c2[nH]cnc2n(C)c1=O has cell viability (log2) strictly less than 0.04
Reply text: Condition not met

Inquiry: Answer whether the compound C#Cc1cccc(Nc2ncnc3cc(OCCOC)c(OCCO)cc23)c1 has cell viability (log2) strictly less than 0.04
Reply text: Condition met

Inquiry: Answer whether the compound Nc1ccccc1NC(=O)c1ccc(CNc2nccc(-c3cccnc3)n2)cc1 has cell viability (log2) strictly less than 0.04
Reply text: Condition not met

Inquiry: Answer whether the compound Cn1c(CNc2ccc(C(=N)N)cc2)nc2cc(C(=O)N(CCC(=O)O)c3ccccn3)ccc21 has cell viability (log2) strictly less than 0.04
Reply text: Condition met

Inquiry: Answer whether the compound Cc1nnc(C(C)C)n1C1C[C@H]2CC[C@@H](C1)N2CC[C@H](NC(=O)C1CCC(F)(F)CC1)c1ccccc1 (stereo partly drawn) has cell viability (log2) strictly less than 0.04
Reply text: Condition not met

Inquiry: Answer whether the compound O=c1cc(-c2cccc3c2Sc2ccccc2S3)oc(N2CCOCC2)c1 has cell viability (log2) strictly less than 0.04
Reply text: Condition met

Inquiry: Answer whether the compound COc1nc(N)nc2c1ncn2[C@@H]1O[C@H](CO)[C@@H](O)[C@@H]1O has cell viability (log2) strictly less than 0.04
Reply text: Condition not met

Inquiry: Answer whether the compound CN(C)C/C=C/C(=O)Nc1cc2c(Nc3ccc(F)c(Cl)c3)ncnc2cc1O[C@H]1CCOC1 has cell viability (log2) strictly less than 0.04
Reply text: Condition met

Inquiry: Answer whether the compound O=c1[nH]cc(F)c(=O)[nH]1 has cell viability (log2) strictly less than 0.04
Reply text: Condition met

Inquiry: Answer whether the compound Cc1ccc(NC(=O)c2ccc(CN3CCN(C)CC3)cc2)cc1Nc1nccc(-c2cccnc2)n1 has cell viability (log2) strictly less than 0.04
Reply text: Condition not met

Inquiry: Answer whether the compound NCCCCCC(=O)O has cell viability (log2) strictly less than 0.04
Reply text: Condition not met

Inquiry: Answer whether the compound Nc1cccc(-c2cc3c(Oc4cccc(O)c4)ncnc3[nH]2)c1 has cell viability (log2) strictly less than 0.04
Reply text: Condition met

Inquiry: Answer whether the compound COc1cc2c(N3CCN(C(=O)Nc4ccc(OC(C)C)cc4)CC3)ncnc2cc1OCCCN1CCCCC1 has cell viability (log2) strictly less than 0.04
Reply text: Condition met

Inquiry: Answer whether the compound CCCCCCOC(=O)/N=C(/N)c1ccc(NCc2nc3cc(C(=O)N(CCC(=O)OCC)c4ccccn4)ccc3n2C)cc1 has cell viability (log2) strictly less than 0.04
Reply text: Condition met

Inquiry: Answer whether the compound Cc1ccncc1Nc1ncccc1C(=O)Nc1ccc(C2(C#N)CCCC2)cc1 has cell viability (log2) strictly less than 0.04
Reply text: Condition met

Inquiry: Answer whether the compound CCN(CCO)CCCOc1ccc2c(Nc3cc(CC(=O)Nc4cccc(F)c4)[nH]n3)ncnc2c1 has cell viability (log2) strictly less than 0.04
Reply text: Condition met
